FYI, the data here is from patent US20130116263A1.

Recorded IC50 by entry
experimental target: PAK1 (Homo sapiens, UniProt Q13153)
Sequence (Q13153 whole entry): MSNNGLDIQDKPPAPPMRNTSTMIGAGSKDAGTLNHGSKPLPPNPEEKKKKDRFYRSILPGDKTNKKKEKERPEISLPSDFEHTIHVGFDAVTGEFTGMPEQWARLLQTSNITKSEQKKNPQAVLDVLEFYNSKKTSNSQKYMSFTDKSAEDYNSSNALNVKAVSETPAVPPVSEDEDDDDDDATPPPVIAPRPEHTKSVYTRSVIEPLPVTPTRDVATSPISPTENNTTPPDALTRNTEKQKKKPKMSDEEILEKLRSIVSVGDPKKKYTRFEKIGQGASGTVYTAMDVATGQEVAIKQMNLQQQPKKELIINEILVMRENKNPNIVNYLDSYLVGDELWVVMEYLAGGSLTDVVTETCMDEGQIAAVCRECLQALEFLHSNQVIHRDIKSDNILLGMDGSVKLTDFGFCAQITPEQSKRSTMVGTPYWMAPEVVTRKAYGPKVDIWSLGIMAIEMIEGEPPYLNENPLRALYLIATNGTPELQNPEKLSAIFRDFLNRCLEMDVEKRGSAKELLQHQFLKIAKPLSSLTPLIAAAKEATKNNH
test: In vitro PAK inhibition assay (Z'-LYTE, SelectScreen), PAK1
Format: biochemical
protocol conditions: read-out: PAK1 IC50

[
  {
    "molecule": "CCn1c(=O)c(-c2ccc(-c3noc(C)n3)cc2Cl)cc2cnc(NC3CCOCC3)nc21",
    "IC50": "50 to 500 nM"
  },
  {
    "molecule": "CCn1c(=O)c(-c2ccc(-c3nccnc3C)cc2Cl)cc2cnc(NC3CCN(C)C3)nc21 (stereo not drawn)",
    "IC50": "50 to 500 nM"
  },
  {
    "molecule": "CCn1c(=O)c(-c2ccc(-c3cccnc3F)cc2Cl)cc2cnc(NC3CCOC3)nc21 (stereo not drawn)",
    "IC50": "50 to 500 nM"
  },
  {
    "molecule": "CCn1c(=O)c(-c2cc(C)c(-c3noc(C)n3)cc2Cl)cc2cnc(N[C@@H]3CCOC3)nc21",
    "IC50": "500 to 5000 nM"
  },
  {
    "molecule": "CCn1c(=O)c(-c2ccc(-c3ccc(C)nc3)cc2Cl)cc2cnc(N[C@@H]3CCOC3)nc21",
    "IC50": "500 to 5000 nM"
  }
]

Request: Entry under review: CCn1c(=O)c(-c2ccc(-c3cncc(C)n3)cc2Cl)cc2cnc(NCCC3CCNCC3)nc21 . Reported IC50?
Result: < 50 nM

Request: Item CCn1c(=O)c(-c2ccc(-c3cncc(C)n3)cc2Cl)cc2cnc(NCCOCCN)nc21 has what recorded IC50?
Result: 50 to 500 nM

Request: Query: IC50; subject: CCn1c(=O)c(-c2ccc(-c3nccnc3C)cc2Cl)cc2cnc(NC3CCCOC3)nc21 (stereo not drawn)
Result: 50 to 500 nM

Request: What does the data say about its IC50? Entry: Cc1cncc(-c2ccc(-c3cc4cnc(N[C@H]5CCOC5)nc4n(CCCN)c3=O)c(Cl)c2)n1
Result: < 50 nM
